# Assay notes: In vitro dog hepatocyte stability
# Type: in vitro ADME
Experimental endpoint: clint

[[record]]
compound = "CC(C)[C@H](Nc1ncnc2[nH]ccc12)c1ccc2c(c1)S(=O)(=O)CCC2 [ASAP-0008674]"
experimental_endpoint = "clint"
result = "< 3.0 uL/min/1E6 cells"

[[record]]
compound = "C[C@H](C(=O)O)[C@@H](NC(=O)c1ncnc2[nH]ccc12)c1ccc(Br)cc1 [ASAP-0014722]"
experimental_endpoint = "clint"
result = "< 3.0 uL/min/1E6 cells"

[[record]]
compound = "COc1ccc([C@H](Cc2nnn[nH]2)NC(=O)c2ncnc3[nH]ccc23)cc1 [ASAP-0015381]"
experimental_endpoint = "clint"
result = "< 3.0 uL/min/1E6 cells"


====

Reported perc_inhibition_mean is given for each of the following compounds.
# Test target: SARS-CoV-2 nsp3-mac1 (Severe acute respiratory syndrome coronavirus 2)
# Assay notes: biochemical
# Type: biochemical
# Test context: SARS-CoV-2 nsp3 macrodomain TR-FRET single point; concentration 49.75 uM
Experimental endpoint: perc_inhibition_mean (%)

[[record]]
chemical_string = "O=C(c1c[nH]c(=O)cn1)N1CCC(c2ccn3ncc(C(=O)N4CCCCC4)c3c2)CC1"
unit_spec = "%"
numeric_value = -49.044

[[record]]
chemical_string = "CC(C)[C@@H](Nc1ncnc2[nH]ccc12)C(F)F"
unit_spec = "%"
numeric_value = 81.614

[[record]]
chemical_string = "Cc1nc(C(=O)N2CCC(c3ccn4ncc(C(=O)N5CCCCC5)c4c3)CC2)c(C)[nH]1"
unit_spec = "%"
numeric_value = 16.798


====

Reported perc_remaining_no_cofactor is given for each of the following compounds.
# Assay notes: Hepatic microsomal stability, HLM
# Type: in vitro ADME, human
# Test context: In vitro human liver microsomal stability; no cofactor
Experimental endpoint: perc_remaining_no_cofactor (%)

[[record]]
compound = "CC(C)[C@@H](Nc1ncnc2[nH]c(-c3cnn(C)c3C#N)cc12)c1ccc2c(n1)NC(=O)CO2 [ASAP-0008644]"
numeric_value = 97.0

[[record]]
compound = "CC(C)[C@H](CO)Nc1ncnc2[nH]ccc12"
numeric_value = 99.0

[[record]]
compound = "CC(C)[C@@H](Nc1ncnc2[nH]c(-c3cnn(CC(N)=O)c3)cc12)c1ccc2c(n1)OCCO2 (single isomer, unassigned) [ASAP-0012315]"
numeric_value = 95.0

[[record]]
compound = "CC(C)[C@H](Nc1ncnc2[nH]c(-c3cnn(CC(=O)N(C)C)c3)cc12)c1ccc2c(c1)S(=O)(=O)CCC2"
numeric_value = 97.0

[[record]]
compound = "CNC(=O)c1cc2c(N[C@@H](c3ccc4c(c3)OCCO4)C(C)C)ncnc2[nH]1"
numeric_value = 92.0

[[record]]
compound = "CCNC(=O)c1cc2c(N[C@H](c3ccc4c(c3)S(=O)(=O)CCC4)C(C)C)ncnc2[nH]1 (racemic) [ASAP-0008711]"
numeric_value = 98.0

[[record]]
compound = "CCNC(=O)c1cc2c(N[C@H](c3ccc4c(c3)S(=O)(=O)CCC4)C(C)C)ncnc2[nH]1 [ASAP-0012325]"
numeric_value = 102.0

[[record]]
compound = "CC(C)(C)[C@H](Nc1ncnc2[nH]c(-c3cnn(CC(N)=O)c3)cc12)c1ccc2c(n1)OCCO2 (racemic) [ASAP-0008648]"
numeric_value = 96.0

[[record]]
compound = "CC(C)[C@@H](Nc1ncnc2[nH]c(-c3cnn(C)c3C#N)cc12)c1ccc2c(n1)NC(=O)CO2 (single isomer, unassigned) [ASAP-0011180]"
numeric_value = 98.0

[[record]]
compound = "CC(C)[C@@H](Nc1ncnc2[nH]c(-c3cncc(S(C)(=O)=O)c3)cc12)c1ccc2c(c1)S(=O)(=O)CCC2"
numeric_value = 104.0

[[record]]
compound = "Cn1ncc(-c2cc3c(N[C@@H](c4ccc5c(n4)OCCO5)C(C)(C)C)ncnc3[nH]2)c1C#N"
numeric_value = 85.0

[[record]]
compound = "CC(C)[C@@H](Nc1ncnc2[nH]c(-c3cnn(CC(N)=O)c3)cc12)c1ccc2c(n1)OCCO2 [ASAP-0008646]"
numeric_value = 95.0

[[record]]
compound = "CC(C)[C@@H](Nc1ncnc2[nH]c(-c3cnn(CC(=O)N(C)C)c3)cc12)c1ccc2c(c1)S(=O)(=O)CCC2 [ASAP-0013747]"
numeric_value = 99.0

[[record]]
compound = "Cc1nn(C)cc1-c1cc2c(N[C@H](c3ccc4c(c3)S(=O)(=O)CCC4)C(C)C)ncnc2[nH]1 (single isomer, unassigned)"
numeric_value = 116.0

[[record]]
compound = "CC(C(=O)O)C(NC(=O)c1ncnc2[nH]ccc12)c1ccc(Br)cc1 (mixture of isomers)"
numeric_value = 110.0

[[record]]
compound = "CCNC(=O)c1cc2c(N[C@H](c3ccc4c(c3)OCCO4)C(C)C)ncnc2[nH]1 [ASAP-0013824]"
numeric_value = 100.0

[[record]]
compound = "CC(C)[C@H](Nc1ncnc2[nH]c(C(=O)N[C@H]3CCN(C)C3)cc12)c1ccc2c(c1)S(=O)(=O)CCC2"
numeric_value = 98.0

[[record]]
compound = "CC(C)[C@H](Nc1ncnc2[nH]cc(C(=O)NC3CC3)c12)c1ccc2c(c1)S(=O)(=O)CCC2 (single isomer, unassigned) [ASAP-0011247]"
numeric_value = 112.0

[[record]]
compound = "CC(C)[C@H](Nc1ncnc2[nH]ccc12)c1ccc2c(c1)S(=O)(=O)CCC2"
numeric_value = 92.0

[[record]]
compound = "CC(C)[C@H](Nc1ncnc2[nH]c(-c3cnn(C)c3C#N)cc12)c1ccc2c(c1)OCCO2"
numeric_value = 103.0

[[record]]
compound = "CC(C)[C@H](Nc1ncnc2[nH]c(-c3cnn(CC(N)=O)c3)cc12)c1ccc2c(c1)NC(=O)CO2 (racemic)"
numeric_value = 91.0

[[record]]
compound = "CC(C)[C@@H](Nc1ncnc2[nH]c(C(=O)N[C@H]3CCN(C)C3)cc12)c1ccc2c(c1)S(=O)(=O)CCC2 (single isomer, unassigned)"
numeric_value = 107.0

[[record]]
compound = "CNCc1cc(-c2cc3c(N[C@@H](c4ccc5c(c4)S(=O)(=O)NCC5)C(C)C)ncnc3[nH]2)co1"
numeric_value = 93.0

[[record]]
compound = "CNC(=O)c1cc2c(N[C@@H](c3ccc4c(c3)NC(=O)CO4)C(C)C)ncnc2[nH]1 [ASAP-0011219]"
numeric_value = 96.0


====

# Assay notes: Hepatic microsomal stability, HLM
# Type: in vitro ADME, human
# Test context: In vitro human liver microsomal stability
Experimental endpoint: clint

[[record]]
compound = "CC(C)[C@@H](Nc1ncnc2[nH]c(-c3ccc4cncn4c3)cc12)c1ccc2c(c1)S(=O)(=O)CCC2 [ASAP-0011215]"
result = "210.0 µL/min/mg"

[[record]]
compound = "CNCc1cc(-c2cc3c(N[C@@H](c4ccc5c(c4)S(=O)(=O)NCC5)C(C)C)ncnc3[nH]2)co1 [ASAP-0011243]"
result = "46.0 µL/min/mg"

[[record]]
compound = "CC(C(=O)O)C(NC(=O)c1ncnc2[nH]ccc12)c1ccc(Br)cc1 (mixture of isomers) [ASAP-0008445]"
result = "5.0 µL/min/mg"

[[record]]
compound = "CC(C)[C@@H](Nc1ncnc2[nH]c(-c3cnn(CC(=O)N(C)C)c3)cc12)c1ccc2c(c1)OCCO2 [ASAP-0008485]"
result = "142.0 µL/min/mg"

[[record]]
compound = "CNC(=O)c1cc2c(N[C@@H](c3ccc4c(c3)S(=O)(=O)CCC4)C(C)C)ncnc2[nH]1 (single isomer, unassigned) [ASAP-0012346]"
result = "682.0 µL/min/mg"

[[record]]
compound = "CC(C)[C@@H](Nc1ncnc2[nH]ccc12)c1ccc2c(c1)S(=O)(=O)CCO2 [ASAP-0012318]"
result = "18.0 µL/min/mg"


====

# Test system: NMDA
# Assay notes: In vitro CEREP profiling, NMDA (antagonist radioligand)
# Type: binding
# Test context: test compound concentration 10 uM
Reported perc_inhibition (% inhibition of the binding of a ligand specific for each target) is given for each of the following compounds.
Experimental endpoint: perc_inhibition (% inhibition of the binding of a ligand specific for each target) (%)

[[record]]
compound = "Cc1nn(C)cc1-c1cc2c(NC(c3ccc4c(c3)S(=O)(=O)CCC4)C(C)C)ncnc2[nH]1 (centres unmarked)"
unit_spec = "%"
numeric_value = -2

[[record]]
compound = "CC(C)[C@@H](Nc1ncnc2[nH]c(-c3cnn(C)c3C#N)cc12)c1ccc2c(n1)OCCO2"
unit_spec = "%"
numeric_value = 1

[[record]]
compound = "CNCc1cc(-c2cc3c(N[C@@H](c4ccc5c(c4)S(=O)(=O)CCC5)C(C)C)ncnc3[nH]2)co1"
unit_spec = "%"
numeric_value = -1

[[record]]
compound = "CC(C)[C@H](Nc1ncnc2[nH]ccc12)c1ccc2c(c1)S(=O)(=O)CCC2"
unit_spec = "%"
numeric_value = -1

[[record]]
compound = "CC(C)C(Nc1ncnc2[nH]c(C(=O)NC3CCN(C)C3)cc12)c1ccc2c(c1)S(=O)(=O)CCC2 (centres unmarked)"
unit_spec = "%"
numeric_value = 1

